Assay: In-vivo PK of GGA oral formulations in rat
Conditions: plasma, GGA in 5% Gum Arabic aqueous suspension, read-out: t½ (converted)
Metric: half-life (min)
Form entry: value (min) — number only.

So what's the measured half-life for this one? CC(=O)CC/C=C(\C)CC/C=C(\C)CC/C=C(\C)CCC=C(C)C
206

* * *

System: RhoA
Assay: Active RhoA to total RhoA in Neuro2A cells (G-LISA, ELISA)
Type: cell-based, mouse
Conditions: 48 hrs treatment, ratio of active RhoA to total RhoA as percentage of DMSO treatments, concentration not given
Procedure: Mouse neuroblastoma Neuro2A cells were cultured in DMEM supplemented with 10% FBS for 24 hrs. […] Cell lysates were quantified and subjected either to active RhoA assay using G-LISA RhoA activation Assay Biochem Kit (Cytoskeleton Inc), or to total RhoA assay using Total RhoA ELISA Kit (Cytoskeleton Inc). The results were calculated as ratio of active RhoA to total RhoA and averaged from 3 biological repeats of one experiment with background subtraction. […]
Metric: % Relative RhoGTPase Activity (%)
Form entry: value (%) — number only.

Here's what some known entries look like.
Molecule: CCCCNC(=S)OC/C=C(\C)CC/C=C(\C)CC/C=C(\C)CCC=C(C)C [Compound 10e]
Tested System: RhoA
Metric: % Relative RhoGTPase Activity
Recorded Value: 89.7
--
Molecule: CCOC(=O)CCNC(=O)OC/C=C(\C)CC/C=C(\C)CCC=C(C)C
Tested System: RhoA
Metric: % Relative RhoGTPase Activity
Recorded Value: 111.4
--
Molecule: CCCCCNC(=O)OC/C=C(\C)CC/C=C(\C)CCC=C(C)C [Compound 8b, n-Pentyl 2E, 6E-farnesyl carbamate]
Tested System: RhoA
Metric: % Relative RhoGTPase Activity
Recorded Value: 125.0

# input for lookup
So what's the measured % Relative RhoGTPase Activity for this one? CC(C)=CCC/C(C)=C/CC/C(C)=C/COC(=O)NC1CCCCC1 [Compound 8f, Cyclohexyl 2E, 6E-farnesyl carbamate]
104.6

* * *

Reported EC50 values follow for various compounds
Test system: Rat primary motor neurons
Test: Axon extension of rat primary motor neurons
Format: cell-based
Conditions: 72 hrs; read-out: EC50 (cells extending axons)
Form entry: value (nM) — number only.

Molecule: CC(=O)CC/C=C(/C)CC/C=C(\C)CC/C=C(\C)CCC=C(C)C
Unit Tag: nM
EC50: 9.49

# input for lookup
So what's the measured EC50 for this one? CC(=O)CC/C=C(\C)CC/C=C(\C)CC/C=C(\C)CCC=C(C)C
0.92

* * *

Assay: In-vivo PK of GGA oral formulations in rat
Conditions: plasma, GGA in 5% Gum Arabic aqueous suspension, read-out: oral bioavailability (% F)
Metric: bioavailability (%)
Form entry: value (%) — number only.

So what's the measured bioavailability for this one? CC(=O)CC/C=C(\C)CC/C=C(\C)CC/C=C(\C)CCC=C(C)C [GGA, geranylgeranyl acetone]
37.3

* * *

Conditions: mouse, in vivo, po, 12 mg/kg
Metric: MCH (pg)
Form entry: value (pg) — number only.

So what's the measured MCH for this one? CC(=O)CC/C=C(\C)CC/C=C(\C)CC/C=C(\C)CCC=C(C)C [CNS-102]
15.5

* * *

Test: In-vivo PK of GGA oral formulations in rat
Settings: plasma, GGA in 3% Hydroxypropyl Cellulose (Mn=100,000) aqueous suspension, read-out: t½ (converted)
Metric: half-life (h)
Form entry: value (h) — number only.

So what's the measured half-life for this one? CC(=O)CC/C=C(\C)CC/C=C(\C)CC/C=C(\C)CCC=C(C)C
3.13
